ASSAY TARGET: FXR (Homo sapiens (Human), UniProt Q96RI1)
Sequence (Q96RI1 262-486): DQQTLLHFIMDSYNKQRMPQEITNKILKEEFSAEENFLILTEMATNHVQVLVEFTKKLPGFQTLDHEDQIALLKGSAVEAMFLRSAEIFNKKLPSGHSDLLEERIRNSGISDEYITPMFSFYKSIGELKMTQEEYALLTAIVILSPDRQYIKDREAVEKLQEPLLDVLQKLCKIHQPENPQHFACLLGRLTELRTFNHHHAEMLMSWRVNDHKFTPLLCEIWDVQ
PROTOCOL DETAILS: FXR EC50 (FXR agonist activity reported with each example)
Assay type: cell-based
The label is yes (1) for EC50 below 0.04 µM and no (0) for EC50 equal to or exceeding 0.04 µM.

| SUBSTANCE SMILES | LABEL VALUE |
| --- | --- |
| NC(=O)c1cc(C(F)(F)F)cc2nc(C34CCC(OCc5c(-c6c(Cl)cncc6Cl)noc5C5CC5)(CC3)CC4)sc12 | no (0) |
| O=C(O)c1cccc(OCC23CCC(OCc4c(-c5ccccc5OC(F)(F)F)noc4C4CC4)(CC2)CC3)c1 | no (0) |
| O=C(O)c1cc(C#CC23CCC(OCc4c(-c5c(Cl)cncc5Cl)noc4C4CC4)(CC2)CC3)cc2[nH]ccc12 | no (0) |
| COc1c(F)cc(-c2noc(C34CCC(OCc5c(-c6c(Cl)cncc6Cl)noc5C5CC5)(CC3)CC4)n2)cc1C(=O)O | yes (1) |

Please indicate whether the reported EC50 of `COC(=O)c1ccc(-c2noc(C34CCC(C=Cc5c(-c6c(Cl)cccc6Cl)noc5C5CC5)(CC3)CC4)n2)cc1` is strictly below 0.04 µM.
no (0)

Please indicate whether the reported EC50 of `O=C(O)c1cc(-c2noc(C34CCC(OCc5c(-c6c(Cl)cncc6Cl)noc5C5CC5)(CC3)CC4)n2)ccc1F` is strictly below 0.04 µM.
no (0)
